Values were extracted from ChEMBL document CHEMBL1148785.

Test system: Plasmodium falciparum
RUN_DESCRIPTION: Inhibition of Plasmodium falciparum protein farnesyltransferase at 5 nM by scintillation proximity assay
MEASURE_NAME: inhibition (%)

Below, each entry is followed by its recorded inhibition result.
CCCS(=O)(=O)N(Cc1ccccc1F)C1Cc2cc(C#N)ccc2N(Cc2cncn2C)C1 (stereo not drawn)
16
Cn1cnc(S(=O)(=O)N(CCc2ccc(F)cc2)C2Cc3cc(C#N)ccc3N(Cc3cncn3C)C2)c1 (stereo not drawn)
95
Cc1c(S(=O)(=O)N(Cc2ccc(S(C)(=O)=O)cc2)C2Cc3cc(C#N)ccc3N(Cc3cncn3C)C2)ncn1C (stereo not drawn)
70
Cn1cnc(CN2CC(N(CC(=O)NC(C)(C)C)S(=O)(=O)c3cn(C)cn3)Cc3cc(-c4ccccc4)ccc32)c1 (stereo not drawn)
73

P. Cn1cnc(S(=O)(=O)N(CC(=O)NC(C)(C)C)C2Cc3cc(C(=O)NC4CCCCC4)ccc3N(Cc3cncn3C)C2)c1 (stereo not drawn)
Q. Cn1cnc(S(=O)(=O)N(Cc2ccccn2)C2Cc3cc(C#N)ccc3N(Cc3cncn3C)C2)c1 (stereo not drawn)
Hey, which is lower on measured inhibition, P or Q ? Your answer should be the label of the entry you select.
P
(P: 17%, Q: 96%)

---

Tested on: Plasmodium falciparum
RUN_DESCRIPTION: Inhibition of Plasmodium falciparum protein farnesyltransferase at 5 nM by scintillation proximity assay
MEASURE_NAME: inhibition (%)

Below, each entry is followed by its recorded inhibition result.
CNC(=O)c1ccc2c(c1)CC(N(CC(=O)NC(C)(C)C)S(=O)(=O)c1cn(C)cn1)CN2Cc1cncn1C (stereo not drawn)
20
Cn1cnc(S(=O)(=O)N(CC(=O)NC(C)(C)C)C2Cc3cc(C(=O)O)ccc3N(Cc3cncn3C)C2)c1 (stereo not drawn)
29
Cn1cnc(S(=O)(=O)N(CCc2c[nH]c3ccccc23)C2Cc3cc(C#N)ccc3N(Cc3cncn3C)C2)c1 (stereo not drawn)
91

P. Cc1cc(=O)n(CCCCN(C2Cc3cc(C#N)ccc3N(Cc3cncn3C)C2)S(=O)(=O)c2ccccn2)c(=O)n1C (stereo not drawn)
Q. CCCS(=O)(=O)N(CC1CCN(C(=O)OC)CC1)C1Cc2cc(C#N)ccc2N(Cc2cncn2C)C1 (stereo not drawn)
Quick check, higher inhibition between P and Q ? Your answer should be the label of the entry you select.
P
(P: 51%, Q: 22%)

---

Test system: Plasmodium falciparum
RUN_DESCRIPTION: Antimalarial activity against Plasmodium falciparum K1
Assay type: functional
STUDY_CONDITIONS: Plasmodium falciparum, K1; read-out: ED50 (the source's name)
MEASURE_NAME: EC50 (µM)

Below, each entry is followed by its recorded EC50 result.
CC(C)S(=O)(=O)N1CCC(CN(C2Cc3cc(C#N)ccc3N(Cc3cncn3C)C2)S(=O)(=O)c2ccccn2)CC1 (configuration not stated)
0.055
CC(=O)Nc1ccc(S(=O)(=O)N(Cc2ccccc2F)C2Cc3cc(C#N)ccc3N(Cc3cncn3C)C2)cc1 (configuration not stated)
0.15
Cc1c(S(=O)(=O)N(Cc2ccc(S(C)(=O)=O)cc2)C2Cc3cc(C#N)ccc3N(Cc3cncn3C)C2)ncn1C (configuration not stated)
0.45

I. Cn1cncc1CN1CC(N(Cc2ccccn2)S(=O)(=O)c2ccccn2)Cc2cc(C#N)ccc21 (configuration not stated)
II. Cn1cncc1CN1CC(N(CC2CCN(S(=O)(=O)c3ccccc3)CC2)S(=O)(=O)c2ccccn2)Cc2cc(C#N)ccc21 (configuration not stated)
III. CCN(CCCCN(C1Cc2cc(C#N)ccc2N(Cc2cncn2C)C1)S(=O)(=O)c1ccccn1)C(=O)OC(C)(C)C (configuration not stated)
IV. Cn1cncc1CN1CC(N(Cc2cccc(-n3cccc3)c2)S(=O)(=O)c2ccccn2)Cc2cc(C#N)ccc21 (configuration not stated)
V. COC(=O)N1CCC(CN(C2Cc3cc(C#N)ccc3N(Cc3cncn3C)C2)S(=O)(=O)c2ccc(OC)cc2)CC1 (configuration not stated)
// sort entries: EC50, high to low Rank the items, then write their labels in that order.
III, IV, II, V, I
(III: 2.6 µM, IV: 0.617 µM, II: 0.28 µM, V: 0.19 µM, I: 0.1 µM)

P. Cn1cnc(CN2CC(N(Cc3ccccc3)S(=O)(=O)c3cn(C)cn3)Cc3cc(-c4ccccc4)ccc32)c1 (configuration not stated)
Q. Cn1cncc1CN1CC(N(CC2CCN(C(=O)CC(F)(F)F)CC2)S(=O)(=O)c2ccccn2)Cc2cc(C#N)ccc21 (configuration not stated)
Quick check, higher EC50 between P and Q ? Your answer should be the label of the entry you select.
P

A. Cn1cncc1CN1CC(N(CC2CCN(C(=O)C3CCCC3)CC2)S(=O)(=O)c2ccccn2)Cc2cc(C#N)ccc21 (configuration not stated)
B. Cn1cncc1CN1CC(N(Cc2ccc(S(C)(=O)=O)cc2)S(=O)(=O)c2ccc3c(c2)OCCCO3)Cc2cc(C#N)ccc21 (configuration not stated)
Quick check, higher EC50 between A and B ? Your answer should be the label of the entry you select.
B
(B: 3.5 µM, A: 0.05 µM)

I. Cn1cnc(S(=O)(=O)N(CCc2cccs2)C2Cc3cc(C#N)ccc3N(Cc3cncn3C)C2)c1 (configuration not stated)
II. COC(=O)N(C)CCCN(C1Cc2cc(C#N)ccc2N(Cc2cncn2C)C1)S(=O)(=O)c1ccccn1 (configuration not stated)
Hey, which is lower on measured EC50, I or II ? Your answer should be the label of the entry you select.
I
(I: 0.0085 µM, II: 0.045 µM)

---

Tested on: Plasmodium falciparum
RUN_DESCRIPTION: Inhibition of Plasmodium falciparum protein farnesyltransferase at 5 nM by scintillation proximity assay
MEASURE_NAME: inhibition (%)

I. Cn1cnc(CN2CC(N(CCn3cccc3)S(=O)(=O)c3cn(C)cn3)Cc3cc(-c4ccccc4)ccc32)c1 (centres undefined)
II. CC(C)COC(=O)N1CCC(CN(C2Cc3cc(C#N)ccc3N(Cc3cncn3C)C2)S(=O)(=O)c2cn(C)cn2)CC1 (centres undefined)
III. Cc1oncc1CN(C1Cc2cc(-c3ccccc3)ccc2N(Cc2cn(C)cn2)C1)S(=O)(=O)c1cn(C)cn1 (centres undefined)
// TODO: order the 3 compounds above by inhibition, descending Rank the items, then write their labels in that order.
II, I, III

---

Tested on: Plasmodium falciparum
RUN_DESCRIPTION: Antimalarial activity against Plasmodium falciparum K1
Format: functional
STUDY_CONDITIONS: Plasmodium falciparum, K1; read-out: ED50 (the source's name)
MEASURE_NAME: EC50 (nM)

Below, each entry is followed by its recorded EC50 result.
Cn1cnc(S(=O)(=O)N(Cc2ncoc2-c2ccccc2)C2Cc3cc(C#N)ccc3N(Cc3cncn3C)C2)c1 (stereo unspecified)
890
CC(C)COC(=O)N1CCC(CN(C2Cc3cc(C#N)ccc3N(Cc3cncn3C)C2)S(=O)(=O)c2cn(C)cn2)CC1 (stereo unspecified)
5.5
COC(=O)N1CCC(CN(C2Cc3cc(C#N)ccc3N(Cc3cncn3C)C2)S(=O)(=O)c2cn(C)cn2)CC1 (stereo unspecified)
4.5
Cn1cncc1CN1CC(N(Cc2ccc(F)cc2)S(=O)(=O)c2ccccn2)Cc2cc(C#N)ccc21 (stereo unspecified)
2500

I. Cn1cnc(CN2CC(N(CC(=O)NC(C)(C)C)S(=O)(=O)c3ccccc3)Cc3cc(-c4ccccc4)ccc32)c1 (stereo unspecified)
II. Cn1cnc(S(=O)(=O)N(Cc2ccc(-n3cccn3)cc2)C2Cc3cc(C#N)ccc3N(Cc3cncn3C)C2)c1 (stereo unspecified)
III. Cc1nn(-c2ccccc2)nc1CN(C1Cc2cc(C#N)ccc2N(Cc2cncn2C)C1)S(=O)(=O)c1ccccn1 (stereo unspecified)
// sort entries: EC50, high to low Rank the items, then write their labels in that order.
I, III, II

A. Cn1cnc(S(=O)(=O)N(Cc2ccc(-n3cccc3)cc2)C2Cc3cc(C#N)ccc3N(Cc3cncn3C)C2)c1 (stereo unspecified)
B. Cn1cncc1CN1CC(N(CCCCON2C(=O)c3ccccc3C2=O)S(=O)(=O)c2ccccn2)Cc2cc(C#N)ccc21 (stereo unspecified)
Hey, which is lower on measured EC50, A or B ? Your answer should be the label of the entry you select.
A
(A: 65 nM, B: 1420 nM)

P. CN(CCCCN(C1Cc2cc(C#N)ccc2N(Cc2cncn2C)C1)S(=O)(=O)c1ccccn1)C(=O)OC(C)(C)C (stereo unspecified)
Q. CC(=O)N1CCC(CN(C2Cc3cc(C#N)ccc3N(Cc3cncn3C)C2)S(=O)(=O)c2ccccn2)CC1 (stereo unspecified)
Hey, which is lower on measured EC50, P or Q ? Your answer should be the label of the entry you select.
Q

I. Cn1cncc1CN1CC(N(CC2CCN(C(=O)NC(C)(C)C)CC2)S(=O)(=O)c2ccccn2)Cc2cc(C#N)ccc21 (stereo unspecified)
II. Cn1cnc(S(=O)(=O)N(CC(=O)O)C2Cc3cc(C#N)ccc3N(Cc3cncn3C)C2)c1 (stereo unspecified)
Hey, which is lower on measured EC50, I or II ? Your answer should be the label of the entry you select.
I
(I: 150 nM, II: 400 nM)
